system: Fibroblast; test: Multiplex assay against human fibroblast; format: toxicity, cell-based; details: 48 h, 1 µM, compound concentration 1 uM, replicate 2
Population Tubulin-Different-Phenotype (%) under 60% gets Met, anything at or over 60% gets Not met.

structure: C[C@H](NC(=O)CNC(=O)c1cccc(Cl)c1)c1ccccc1
target_of_assay: Fibroblast
answer_label: Met
--
structure: Cc1cc(=O)n(C)c2cc(N3C(=O)CC[C@H](NS(=O)(=O)CC(C)C)[C@H]3c3ccc(Cl)cc3)ccc12
target_of_assay: Fibroblast
answer_label: Not met
--
structure: N[C@](CC1c2ccccc2Oc2ccccc21)(C(=O)O)[C@H]1C[C@@H]1C(=O)O
target_of_assay: Fibroblast
answer_label: Not met

====

tested on: U2OS; experiment: Multiplex assay against U2OS; type: toxicity, cell-based; details: human, 48 h, 1 µM, compound concentration 1 uM, replicate 2
Reported Population Healthy Nuclei (%) values for a set of compounds

compound: COC(c1ccccc1)(c1ccccc1)[C@H](Oc1nc(C)cc(C)n1)C(=O)O
target_of_assay: U2OS
Population Healthy Nuclei (%): 72%
//
compound: C[C@H](NC(=O)CNC(=O)c1cccc(Cl)c1)c1ccccc1
target_of_assay: U2OS
Population Healthy Nuclei (%): 70%
//
compound: Cc1ccc(OCC(O)C(C)NC(C)C)c2c1CCC2.Cl (stereo not given)
target_of_assay: U2OS
Population Healthy Nuclei (%): 69%
//
compound: CN1CCN2c3ccccc3Cc3ccccc3C2C1.Cl (stereo not given) [MIANSERIN HYDROCHLORIDE]
target_of_assay: U2OS
Population Healthy Nuclei (%): 71%
//
compound: O=c1nc2[nH]c3ccccc3nc-2c(=O)[nH]1
target_of_assay: U2OS
Population Healthy Nuclei (%): 72%

====

system: U2OS; experiment: Multiplex assay against U2OS; assay type: toxicity, cell-based; settings: human, 12 h, 10 µM, compound concentration 10 uM, replicate 1
Reported Population Healthy Nuclei (%) values for a set of compounds

compound: CCCCCCNC(=O)Nc1ccc(S(=O)(=O)Nc2ccc(CCNC[C@H](O)COc3ccc(O)cc3)cc2)cc1
units_label: %
Population Healthy Nuclei (%): 59

compound: Cc1cc(O)c(-c2ccc([C@@H](C)CN(C)C)cc2)c2c1[nH]c(=O)c1sccc12
units_label: %
Population Healthy Nuclei (%): 50

compound: Nc1nc(-c2ccco2)c2cnn(Cc3ccccc3F)c2n1
units_label: %
Population Healthy Nuclei (%): 45

compound: Cc1cc(=O)n(C)c2cc(N3C(=O)CC[C@H](NS(=O)(=O)CC(C)C)[C@H]3c3ccc(Cl)cc3)ccc12
units_label: %
Population Healthy Nuclei (%): 55

compound: Cl.Cl.OCCOCCN1CCN(C(c2ccccc2)c2ccc(Cl)cc2)CC1 (stereo not given) [HYDROXYZINE HYDROCHLORIDE]
units_label: %
Population Healthy Nuclei (%): 66

====

tested on: HEK-293T; assay: Multiplex assay against HEK293T; assay type: toxicity, cell-based; conditions: human, 12 h, 10 µM, compound concentration 10 uM, replicate 1
reported_endpoint: Population Hoechst High Intensity Objects (%)

structure: O=C(Nc1cc(-c2ccccc2)nn1-c1ccccc1F)c1ccc([N+](=O)[O-])cc1
target_of_assay: HEK-293T
units_label: %
reported_result: 5
//
structure: Cn1cc(C(=O)OCC2CCN(CCNS(C)(=O)=O)CC2)c2ccccc21
target_of_assay: HEK-293T
units_label: %
reported_result: 6
//
structure: Cc1nn(C)c2nc(NNC(=O)Nc3cc(Cl)nc(Cl)c3)cc(C(C)C)c12
target_of_assay: HEK-293T
units_label: %
reported_result: 12
//
structure: COc1c(Nc2ccc(S(C)(=O)=O)nc2C)ncnc1OC1CCN(C(=O)OC(C)C)CC1
target_of_assay: HEK-293T
units_label: %
reported_result: 8
